ASSAYED_TARGET: aldose reductase, originating from the lens of cattle (Bos taurus, UniProt P16116)
Construct: originating from the lens of cattle, was employed after being subjected to a partial purification; from tissue; host or cells: lens of cattle, partially purified
ASSAY_NAME: Enzyme reaction inhibiting activity (aldose reductase, NADPH / D,L-glyceraldehyde, absorbance at 340 nm)
Format: biochemical
CONDITION_LABEL: concentration of 0.1 γ; pH 6.0, 37° C.
Consider the following molecules; for each one, report its inhibition at 0.1 µg.
Express your answer in %, writing the number without its unit.

Entry O=C(O)CCCc1ccc(OCC2CCCCC2)c(-c2cc(CCCC(=O)O)ccc2OCC2CCCCC2)c1 ; inhibition at 0.1 µg = 45

CCCCCOc1ccc(CCCC(=O)O)cc1-c1cc(CCCC(=O)O)ccc1OCCCCC has a reported inhibition at 0.1 µg of 48

Entry CCOc1ccc(CCC(=O)O)cc1-c1cc(CCC(=O)O)ccc1OCC — recorded inhibition at 0.1 µg = 43

Record COc1ccc(CCCC(=O)O)cc1-c1cc(CCCC(=O)O)ccc1OC , field inhibition at 0.1 µg: 63

* * *

Would you kindly list inhibition at 0.1 µg for each of these compounds?
ASSAYED_TARGET: aldose reductase, originating from the lens of cattle (Bos taurus, UniProt P16116)
Construct: originating from the lens of cattle, was employed after being subjected to a partial purification; from tissue; host or cells: lens of cattle, partially purified
ASSAY_NAME: Enzyme reaction inhibiting activity (aldose reductase, NADPH / D,L-glyceraldehyde, absorbance at 340 nm)
Format: biochemical
CONDITION_LABEL: concentration of 0.1 γ; pH 6.0, 37° C.
Protocol: The preparation of aldose reductase and the determination of its enzyme reaction inhibiting activity were carried out pursuant to the procedures disclosed by Haymann et al. in Journal of Biological Chemistry, 240, 877 (1965). […]
All answers are understood in %, so give the number only.

The reported inhibition at 0.1 µg of the compound CCCOc1ccc(CCCC(=O)O)cc1-c1cc(CCCC(=O)O)ccc1OCCC [R=C3H7, n=3] was 57

// recorded inhibition at 0.1 µg for COc1ccc(CCC(=O)O)cc1-c1cc(CCC(=O)O)ccc1OC [R=CH3, n=2] : 44

So, O=C(O)CCc1ccc(OCC2CCCCC2)c(-c2cc(CCC(=O)O)ccc2OCC2CCCCC2)c1 ? Its inhibition at 0.1 µg was 44

Record CCCOc1ccc(CCC(=O)O)cc1-c1cc(CCC(=O)O)ccc1OCCC [R=C3H7, n=2] , field inhibition at 0.1 µg: 35

Form: compound = CCOc1ccc(CCCC(=O)O)cc1-c1cc(CCCC(=O)O)ccc1OCC [R=C2H5, n=3] ; inhibition at 0.1 µg = 77
